System: Trypanosoma brucei
Test description: Trypanosoma brucei 72 hour study
Assay type: functional, organism-based
Set-up: scale not given: in the data most compounds retested in dose-response had high values
Reported conditions: 30.3 µM; […]
In all, about 66,000 compounds went through this assay and about 960 (1.5%) showed an effect of 50% or more. Many of the other results were omitted from the sample, so strong results are more common in it than they were.
Measured Percent Effect, listed per entry.
Provide only the numeric value, understood in %.

Completed entries (count: 3):
{"columns": ["Compound", "Tested target", "Percent Effect [%]"],
 "data": [
  ["CNC(=O)[C@@H]1C[C@@H](N)CN1C1CCN(Cc2ccccn2)CC1", "Trypanosoma brucei", -17.78],
  ["CCNC(=O)N1CC(c2nc(Cc3ccccc3)no2)C1", "Trypanosoma brucei", 0.6321],
  ["CC(=O)N1[C@H](CN(C)C)C[C@@H]2CN(C(=O)c3occc3C)CC[C@@H]21.O=C(O)C(F)(F)F", "Trypanosoma brucei", -4.239]
]}

// field: Percent Effect; key: CC(C)c1nn(C)c(N(C)C)c1CNCC(O)c1ccccc1 (stereo not drawn) ; value = 9.453

Summary for this compound, `Cc1nc(Nc2nncs2)cc(C2CNC2)n1.O=C(O)C(F)(F)F` : Percent Effect is -21.99

Consider `N#Cc1c(Cl)nsc1N1CCN(CC2CC2)CC1` . Its measured Percent Effect is -23.59

====

Tested on: Trypanosoma brucei
Test description: Trypanosoma brucei 72 hour study
Format: functional, organism-based
Parameters: scale not given: in the data most compounds retested in dose-response had high values
Reported conditions: 30.3 µM; […]
Out of some 66,000 compounds screened, about 960 (1.5%) showed an effect of 50% or more. The entries come from a sample that favours strong results as a whole.
Attribute measured: Percent Effect (%)
A number alone suffices; assume %.

{"columns": ["Compound", "Percent Effect / %"],
 "data": [
  ["COc1cccc(-c2noc(C3CCN(Cc4ccccc4C)C3)n2)c1.Cl (stereo not drawn)", -12.24],
  ["O=C(NCCc1cccs1)[C@H]1CO[C@H]2CCN(C3CCC3)C[C@H]2C1.O=C(O)C(F)(F)F", -77.19],
  ["CCOc1c(F)cccc1C(=O)N(CC)C(C)c1cccnc1 (stereo not drawn)", 6.068],
  ["CC(NC(=O)CSCC(N)=O)c1ccccc1Oc1ccccc1 (stereo not drawn)", 5.896],
  ["COc1cccc(-c2noc(C3CCN(Cc4ccccc4F)C3)n2)c1.Cl (stereo not drawn)", -18.78]
]}

Entry `O=C(CC1CCC2(CC1)CCN(Cc1ccncc1)CC2)N1CCCC1.O=C(O)C(F)(F)F` ; assay system Trypanosoma brucei; Percent Effect recorded at -30.07

The reported Trypanosoma brucei Percent Effect of `Cc1cccc(NC(=O)c2[nH]nc(C(C)C)c2Br)n1` is 56.85

Tested on Trypanosoma brucei: `Cn1cc(C(=O)N2C[C@H]3C[C@H](Oc4ccccc4)C[C@H]3C2)cn1` . Observed Percent Effect: 8.793

Sample `CO[C@H]1CN(Cc2nc3ccccc3n2C)C[C@@]12CCCO2` , system: Trypanosoma brucei. Its Percent Effect is 99.68

====

Test system: Trypanosoma brucei
Test description: Trypanosoma brucei 72 hour study
Type: functional, organism-based
Set-up: scale not given: in the data most compounds retested in dose-response had high values
Reported conditions: 30.3 µM; […]
The campaign covered roughly 66,000 compounds. About 960 (1.5%) showed an effect of 50% or more. This is one part of a sample in which strong results are shown more often than they occur.
Records here are stratified by Percent Effect; strata: lower bin (below -20%), middle bin (-20% to below 10%), upper bin (10% or more)

Solved entries (count: 2):
{"columns": ["Compound", "Assigned class"],
 "data": [
  ["CC(C)Sc1ccc(C(C)Nc2nc3c(cnn3C)c(=O)[nH]2)cc1 (configuration not stated)", "upper bin"],
  ["CS(=O)(=O)CCC(=O)NC(Cc1ccccc1)C1CC1 (configuration not stated)", "upper bin"]
]}

Kindly state the category for this compound: `Cc1ccc(C(=O)N2CCC3(CC2)CCN(CCN(C)C)C3=O)cn1.O=C(O)C(F)(F)F.O=C(O)C(F)(F)F`
middle bin

For this compound, which bin applies? `CCN1CCn2c(C)cnc2C12CCN(C(=O)N(C)C)CC2.O=C(O)C(F)(F)F.O=C(O)C(F)(F)F`
middle bin

Which band does Cc1ccc(C(=O)N2CCC3(CC2)COC(COc2ccccn2)C3)o1.O=C(O)C(F)(F)F (configuration not stated) fall in?
upper bin

The entry to classify is Cl.NC1CCc2nc(-c3ccncc3)nc(Nc3cccc(F)c3)c2C1 (configuration not stated) ; which class holds it?
upper bin

Please let me know in which category the item `Cc1nc(C(=O)N2CCN(c3ccc(Cl)c(Cl)c3)CC2)cs1` belongs.
upper bin

# classify by Percent Effect band: CC(Nc1nc2c(cnn2C)c(=O)[nH]1)c1ccccn1 (configuration not stated)
lower bin

Pick a category. Item: `O=c1[nH]c(-c2ccccn2)nc2c1CCN(S(=O)(=O)N1CCCC1)C2`
upper bin

Exam item: assign `Cc1noc(C)c1C(=O)N1CC[C@]2(C[C@@H](OCc3cccnc3)CO2)C1.O=C(O)C(F)(F)F` to the correct category.
lower bin

Please report the category associated with `O=c1[nH]c(-c2ccccn2)nc2c1CCN(Cc1cccc(O)c1)C2` , nothing else.
middle bin

Lab log: `O=C(Cn1ccc2ccccc21)Nc1cc(N2CCOCC2)ncn1` — assign Percent Effect category
middle bin

Which bin should I file COCCN1CCC(CNC(=O)Nc2ccc(F)c(Cl)c2)C1 (configuration not stated) under?
upper bin

Categorize the following entry: CCS(=O)(=O)N1CCC2(CC1)COC(COc1cccnc1)C2.O=C(O)C(F)(F)F (configuration not stated)
middle bin

Which bin, given its Percent Effect, does CN(C)CC(=O)N1CCCC2(CCN(c3ccccc3)C2=O)C1.O=C(O)C(F)(F)F (configuration not stated) occupy?
middle bin

GET /class?item= Cc1ccoc1-c1nnc(CNC2CCCN(c3cccnn3)C2)o1 (configuration not stated)
middle bin

Hello team, could you let me know which band the following compound falls into: `O=C(N[C@@H]1CN(CCc2ccc(F)cc2)C[C@H]1O)c1cscn1`
middle bin

Exercise: read the entry `CNC(=O)[C@@H]1C[C@H]2CN(C(=O)c3ccco3)C[C@H]2N1C(C)C.O=C(O)C(F)(F)F` and state which class it falls under.
middle bin

For the record Cn1cc(C(=O)CC2CCCN2C(=O)c2cccc3ncccc23)cn1 (configuration not stated) , report the class its Percent Effect corresponds to.
middle bin

Tag the class for `O=C(O)CC(O)(CC(=O)O)C(=O)O.OCCN(Cc1ccncc1)CC1(c2ccc(Cl)cc2)CCCC1`
upper bin

Determine which band this compound sits in: `CCn1cc(N2Cc3nc(N4CCCC4)ncc3C2=O)cn1`
lower bin
